experimental details: NCI Yeast Anticancer Drug Screen. Data for the cln2 rad14 strain (AID 165)
particulars: S. cerevisiae cln2 rad14 strain, at 50.0 µM, stronger effect = higher value
The panel holds about 79,000 compounds, 15% with a hit somewhere; the sample as a whole holds those more often.
Mark false for growth inhibition values under 10%, and true for everything at or above.

Examples from the recorded data:
• CN(CN(C)/N=C/c1ccc(Cl)cc1)/N=C/c1ccc(Cl)cc1 = true
• COc1ccc(C2OC3=C(Nc4ccc([N+](=O)[O-])cc4N3)C2=O)cc1OC (stereo not given) = false
• NC(=O)c1cn(C2OC(CO)C(O)C2O)c2nc(N)nc(N)c2c1=O (stereo not given) = false
• Nc1ccc(S(=O)c2ccc(N)cc2)cc1 = true
• Cc1ccc(NC(=S)NC(=O)c2cccc([N+](=O)[O-])c2)cc1C = false
• COc1ccc(-c2nc(-c3cc4ccccc4oc3=O)cs2)cc1 = false

Q: Dear colleague, could you confirm whether C1CCCCCC2=C(CCCC1)CCCO2 has growth inhibition at or above 10%?
A: false
